# Potency listing for each entry below
# EXPERIMENTAL_DETAILS: Quantitative High-Throughput drug screen in 47 multiple myeloma cell lines against the NCATS MIPE library collection: SKMM1_PLB cell viability assay (AID 1919863); further: potency means the concentration at half of the fitted maximal effect; nearly all actives have a fitted effect of over 35% in size
# MEASUREMENT_PARAMETERS: SKMM1 myeloma viability, CellTiter-Glo ATP, 48 h
Results filed as inconclusive are left out. Active and inactive are the calls of the source. The call rests on the fitted dose curve; in most records, active means well fitted cell-killing curve with a large enough effect; inconclusive means small, poorly fitted or top-dose-only effect, or effect the other way; inactive means no such curve, though single readings can be large or run the other way.
MEASUREMENT_LABEL: Potency

CHEMICAL_STRUCTURE | ENDPOINT_RESULT
C=CC(=O)Nc1cccc(Oc2nc(Nc3ccc(N4CCN(C)CC4)cc3)ncc2Cl)c1 | 18.7 µM (active)
Cc1cc(Nc2cc(N3CCN(C)CC3)nc(Sc3ccc(NC(=O)C4CC4)cc3)n2)n[nH]1 | 16.6 µM (active)
CC[C@@H]1C(=O)N(C)c2cnc(Nc3ccc(C(=O)NC4CCN(C)CC4)cc3OC)nc2N1C1CCCC1 | 0.235 µM (active)
COc1cc2c(Oc3ccc(NC(=O)C4(C(=O)Nc5ccc(F)cc5)CC4)cc3F)ccnc2cc1OCCCN1CCOCC1 | 20.9 µM (active)
CC[C@@]1(O)C(=O)OCc2c1cc1n(c2=O)Cc2cc3cc(O)ccc3nc2-1 | 1.32 µM (active)
COc1cc2c(Oc3ccc(-c4cnc(Nc5ccc(F)cc5)n(C)c4=O)cc3F)ccnc2cc1OCCCN1CCOCC1 | 29.6 µM (active)
CN1CCN(c2ccc3nc(-c4c(N)c5c(F)cccc5[nH]c4=O)[nH]c3c2)CC1 | 18.7 µM (active)
Nc1ccccc1NC(=O)c1ccc(CNC(=O)OCc2cccnc2)cc1 | 1.32 µM (active)
CCCCCN(CCC12CC3CC(CC(C3)C1)C2)C(=O)NCCCc1ccncc1 | 23.5 µM (active)
Nc1ccn([C@@H]2O[C@H](CO)[C@H](O)C2(F)F)c(=O)n1 | 0.0264 µM (active)
CCC[C@H](NC(=O)C(C#N)=Cc1cccc(Br)n1)c1ccccc1 | 2.96 µM (active)
O=C(O)c1ccc2cc(-c3ccc(O)c(C45CC6CC(CC(C6)C4)C5)c3)ccc2c1 | 4.18 µM (active)
Cc1ccc(C(=O)Nc2ccc(CN3CCN(C)CC3)c(C(F)(F)F)c2)cc1C#Cc1cnc2cccnn12 | 5.9 µM (active)
CN[C@H]1CCc2cc(OC)c(OC)c(OC)c2-c2ccc(OC)c(=O)cc21 | 0.0037 µM (active)
COC(=O)Nc1nc2ccc(C(=O)c3ccc(F)cc3)cc2[nH]1 | 0.469 µM (active)
Cc1ccc(C(=O)Nc2cccc(C(F)(F)F)c2)cc1-c1ccc2nc(NCCN3CCOCC3)ncc2c1 | 16.6 µM (active)
c1ccc2c(CCNc3ccc(Nc4ccncc4)cc3)c[nH]c2c1 | 29.6 µM (active)
C=CCn1c(=O)c2cnc(Nc3ccc(N4CCN(C)CC4)cc3)nc2n1-c1cccc(C(C)(C)O)n1 | 0.469 µM (active)
COc1cc2ncnc(Nc3ccc(F)c(Cl)c3)c2cc1NC(=O)C=CCN1CCCCC1 | 20.9 µM (active)
